Origin of values: the SangsterLogP compilation

Attribute measured: logP

Molecule	Measured result
CCc1ccc(C)cc1C	4.47
CCCc1cccc(C)c1	4.67
Cc1ccc(C)cc1	3.42

I'd like to know its logP. The molecule in question is `CCc1ccc(C)cc1`
4

I'd like to know its logP. The molecule in question is `CCCc1ccc(C)cc1`
4.6

I'd like to know its logP. The molecule in question is `CCc1cccc(C)c1`
3.98

====

Entries and their logP values follow.

Field: example entries. Status: answers known.
Molecule	logP
CCc1cc(C)ccc1C	4.43
Cc1cccc(C)c1C	3.78
CCc1c(C)cccc1C	4.28

I'd like to know its logP. The molecule in question is CCC(C)c1ccccc1 (centres undefined)
4.57

I'd like to know its logP. The molecule in question is `CCc1ccccc1C`
3.86

I'd like to know its logP. The molecule in question is `CCc1cccc(C)c1C`
4.34

I'd like to know its logP. The molecule in question is `CCCc1ccccc1C`
4.5

I'd like to know its logP. The molecule in question is `Cc1cccc(C(C)C)c1`
4.5

I'd like to know its logP. The molecule in question is `Cc1ccc(C)c(C)c1`
3.91

====

Output true (1) for logP not less than 5; output false (0) otherwise.

CCc1ccc(C)c(C)c1 false (0)
CCc1cc(C)cc(C)c1 false (0)
Cc1ccccc1C(C)C false (0)
CC(C)Cc1ccccc1 false (0)

Attention now turns to another entry.
Item `CCCCCCCCCc1ccccc1` with logP of 5 or above?
true (1)
